System: VSV-SARS2
Experiment: microbe, parasite or virus in culture
Assay type: cell-based
Conditions: read-out: IC50 against VSV-SARS2
RECORDED_ENDPOINT: pIC50
pIC50 (log units): -log10 of the concentration in mol/L.

Per the reported VSV-SARS2 data, CS(=O)(=O)CCNCc1ccc(-c2ccc3ncnc(Nc4ccc(OCc5cccc(F)c5)c(Cl)c4)c3c2)o1 [Lapatinib] has pIC50 of 5.15

---

Reported inhibition values are given for each entry in this list.
Biological target: SARS-CoV-2 M^pro (Severe acute respiratory syndrome coronavirus 2)
Test: biochemical
Parameters: dose or concentration left out as unconfirmed
Details: initial screen, Table S4; read-out: Normalized Percent FRET inhibition
Numeric answer only, unit % assumed.

Consider the reported inhibition for these molecules:
MOLECULE	inhibition / %
C[C@@H](c1nc(-c2ccc(C#N)cc2)cs1)[C@](O)(Cn1cncn1)c1cc(F)ccc1F [Isavuconazole]	-0.886
Cc1nc(C)c2c(n1)N(Cc1ccc(-c3ccccc3-c3nnn[nH]3)cc1)C(=O)CC2 [Tasosartan]	-1.96
COc1cc(C(=O)NS(=O)(=O)c2ccccc2C)ccc1Cc1cn(C)c2ccc(NC(=O)OC3CCCC3)cc12 [Zafirlukast]	3.83

Per the reported SARS-CoV-2 M^pro (Severe acute respiratory syndrome coronavirus 2) data, C=CC(=O)Nc1cccc(Oc2nc(Nc3ccc(N4CCN(C)CC4)cc3)nc3ccsc23)c1 [Olmutinib] has inhibition of -0.795

Per the reported SARS-CoV-2 M^pro (Severe acute respiratory syndrome coronavirus 2) data, C[C@]12C=CC(=O)N[C@@H]1CC[C@@H]1[C@@H]2CC[C@]2(C)[C@@H](C(=O)Nc3cc(C(F)(F)F)ccc3C(F)(F)F)CC[C@@H]12 [Dutasteride] has inhibition of -2.38

Per the reported SARS-CoV-2 M^pro (Severe acute respiratory syndrome coronavirus 2) data, C[C@H]1O[C@@H](O[C@H]2[C@@H](O)C[C@H](O[C@H]3[C@@H](O)C[C@H](O[C@H]4CC[C@@]5(C)[C@H](CC[C@@H]6[C@@H]5CC[C@]5(C)[C@@H](C7=CC(=O)OC7)CC[C@]65O)C4)O[C@@H]3C)O[C@@H]2C)C[C@H](O)[C@@H]1O [Digitoxin] has inhibition of 0.197

Per the reported SARS-CoV-2 M^pro (Severe acute respiratory syndrome coronavirus 2) data, C#Cc1cccc(Nc2ncnc3cc4c(cc23)OCCOCCOCCO4)c1 [Icotinib] has inhibition of -0.628

Data credit: paper PMC8315004
